// data source = ChEMBL document CHEMBL5108080

Assay: Cytotoxicity against human A549 cells incubated for 48 hrs by celltiter-glo luminescent cell viability assay
Assay type: toxicity, cell-based

{"structure_smiles_string": "Brc1ccc(-c2nc3ncccn3c2Nc2ccccc2)cc1", "lt_gt_eq": ">", "CC50 at 48 h [µM]": 100}
{"structure_smiles_string": "Brc1ccc(-c2nc3ncccn3c2NC2CCCCC2)c(CN2CCOCC2)c1", "lt_gt_eq": "=", "CC50 at 48 h [µM]": 54}
{"structure_smiles_string": "CCCCOc1ccc(-c2nc3ncccn3c2NCc2ccco2)cc1", "lt_gt_eq": "=", "CC50 at 48 h [µM]": 78}
{"structure_smiles_string": "CCCCOc1ccc(-c2nc3ncccn3c2NC2CCCCC2)cc1", "lt_gt_eq": "=", "CC50 at 48 h [µM]": 52}
{"structure_smiles_string": "CCCCOc1ccc(-c2nc3ncccn3c2NC(C)(C)CC(C)(C)C)cc1", "lt_gt_eq": "=", "CC50 at 48 h [µM]": 29}

* * *

System: Influenza A virus
Assay: Antiviral activity against […] influenza A H5N1 pseudotyped virus infected in A549 cells assessed as inhibition of viral entry incubated for 48 hrs by measuring luciferase activity by Neolite reporter gene assay
Format: functional, organism-based
Conditions: H5N1, A549, 48 h
pIC50: −log10 of the molar value.

{"structure_smiles_string": "Oc1ccc(-c2nc3ncccn3c2NC2CCCCC2)cc1", "lt_gt_eq": "=", "pIC50": 4.44}
{"structure_smiles_string": "Cc1cc(Br)ccc1-c1nc2ncccn2c1NC1CCCCC1", "lt_gt_eq": "=", "pIC50": 4.35}
{"structure_smiles_string": "Brc1ccc(-c2nc3ncccn3c2NC2CCCCC2)cc1", "lt_gt_eq": "<", "pIC50": 4.00}
{"structure_smiles_string": "c1ccc(-c2nc3ncccn3c2NC2CCCCC2)cc1", "lt_gt_eq": "=", "pIC50": 4.34}
{"structure_smiles_string": "COc1ccc(-c2nc3ncccn3c2NC2CCCCC2)cc1", "lt_gt_eq": "<", "pIC50": 4.00}
{"structure_smiles_string": "Brc1ccc(-c2nc3ncccn3c2NC2CCCCC2)c(CN2CCOCC2)c1", "lt_gt_eq": "=", "pIC50": 4.49}

* * *

Assay: Selectivity index, ratio of CC50 for human A549 cells to IC50 for […] influenza A H5N1 pseudotyped virus infected in A549 cells
Assay type: toxicity, cell-based
Details: read-out: Ratio CC50/IC50
Here the recorded selectivity ratio is given for each entry.

{"structure_smiles_string": "COc1ccccc1-c1nc2ncccn2c1NC1CCCCC1", "selectivity ratio": "< 1"}
{"structure_smiles_string": "Brc1ccc(-c2nc3ncccn3c2NC2CCCCC2)c(CN2CCOCC2)c1", "selectivity ratio": "> 1"}
{"structure_smiles_string": "Cc1cc(Br)ccc1-c1nc2ncccn2c1Nc1ccccc1", "selectivity ratio": "< 1"}
{"structure_smiles_string": "Clc1ccc(-c2nc3ncccn3c2NC2CCCCC2)cc1", "selectivity ratio": "> 1"}

* * *

System: Influenza A virus
Assay: Antiviral activity against group 2 influenza A H7N1 pseudotyped virus infected in A549 cells assessed as inhibition of viral entry incubated for 48 hrs by measuring luciferase activity by Neolite reporter gene assay
Assay type: functional, organism-based
Details: H7N1, A549, 48 h

{"structure_smiles_string": "CCCCOc1ccc(-c2c(NC(C)(C)CC(C)(C)C)nc3ncccn23)cc1", "result_unit": "µM", "IC50": 8.1}
{"structure_smiles_string": "CCCCOc1ccc(-c2nc3ncccn3c2NCc2nc[nH]c2C)cc1", "result_unit": "µM", "IC50": 100}
{"structure_smiles_string": "Fc1ccc(COc2ccc(-c3nc4ncccn4c3NC3CCCCC3)cc2)cc1", "result_unit": "µM", "IC50": 0.26}
{"structure_smiles_string": "Oc1ccc(-c2nc3ncccn3c2NC2CCCCC2)cc1", "result_unit": "µM", "IC50": 0.052}
{"structure_smiles_string": "COCCOc1ccc(-c2nc3ncccn3c2NC2CCCCC2)cc1", "result_unit": "µM", "IC50": 0.08}
{"structure_smiles_string": "Oc1ccccc1-c1nc2ncccn2c1NC1CCCCC1", "result_unit": "µM", "IC50": 10}
{"structure_smiles_string": "CCCCOc1ccc(-c2nc3ncccn3c2NC2CCCC2)cc1", "result_unit": "µM", "IC50": 1.5}
{"structure_smiles_string": "Brc1ccc(-c2nc3ncccn3c2Nc2ccccc2)cc1", "result_unit": "µM", "IC50": 1.5}
{"structure_smiles_string": "Fc1ccc(-c2nc3ncccn3c2NC2CCCCC2)cc1", "result_unit": "µM", "IC50": 0.023}
{"structure_smiles_string": "CCCCOc1ccc(-c2nc3ncccn3c2NC2CCCCC2)c(C)c1", "result_unit": "µM", "IC50": 0.22}
{"structure_smiles_string": "c1cnc2nc(-c3ccc(OC4CCCC4)cc3)c(NC3CCCCC3)n2c1", "result_unit": "µM", "IC50": 0.68}
{"structure_smiles_string": "CCCCOc1ccc(-c2nc3ncccn3c2NCC2CC2)cc1", "result_unit": "µM", "IC50": 25}
{"structure_smiles_string": "CCCCOc1ccc(-c2nc3ncccn3c2NCC2CCCCC2)cc1", "result_unit": "µM", "IC50": 0.31}

* * *

Test: Selectivity index, ratio of CC50 for human A549 cells to IC50 for group 2 influenza A H7N1 pseudotyped virus infected in A549 cells
Format: toxicity, cell-based
Conditions: read-out: Ratio CC50/IC50
Here the recorded selectivity ratio is given for each entry.

{"structure_smiles_string": "CCCCOc1ccc(-c2nc3ncccn3c2N)cc1", "lt_gt_eq": ">", "selectivity ratio": 1}
{"structure_smiles_string": "CCCCOc1ccc(-c2nc3ncccn3c2NCc2ccc(OC)cc2)cc1", "lt_gt_eq": "=", "selectivity ratio": 4}
{"structure_smiles_string": "Cc1cc(Br)ccc1-c1nc2ncccn2c1Nc1ccccc1", "lt_gt_eq": "=", "selectivity ratio": 18}
{"structure_smiles_string": "CCCCOc1ccc(-c2nc3ncccn3c2NCc2c[nH]cn2)cc1", "lt_gt_eq": ">", "selectivity ratio": 3}
{"structure_smiles_string": "CCCCOc1ccc(-c2nc3ncccn3c2NCCC)cc1", "lt_gt_eq": ">", "selectivity ratio": 5}
{"structure_smiles_string": "CCCCOc1ccc(-c2nc3ncccn3c2Nc2ccccc2)c(C)c1", "lt_gt_eq": "=", "selectivity ratio": 5.1}
{"structure_smiles_string": "CCCCOc1ccc(-c2nc3ncccn3c2NC(C)C)cc1", "lt_gt_eq": "=", "selectivity ratio": 30}
{"structure_smiles_string": "CCCCOc1ccc(-c2nc3ncccn3c2NC(C)(C)CC(C)(C)C)cc1", "lt_gt_eq": "=", "selectivity ratio": 13}
{"structure_smiles_string": "Oc1cccc(-c2nc3ncccn3c2NC2CCCCC2)c1", "lt_gt_eq": "=", "selectivity ratio": 10}
{"structure_smiles_string": "COc1ccccc1-c1nc2ncccn2c1NC1CCCCC1", "lt_gt_eq": ">", "selectivity ratio": 43}
{"structure_smiles_string": "Oc1ccccc1-c1nc2ncccn2c1NC1CCCCC1", "lt_gt_eq": ">", "selectivity ratio": 10}
{"structure_smiles_string": "CCCCOc1ccc(-c2nc3ncccn3c2N2C(=O)c3cccc(O)c3C2=O)cc1", "lt_gt_eq": ">", "selectivity ratio": 6.6}
{"structure_smiles_string": "CC(C)(C)CC(C)(C)Nc1nc2ncccn2c1-c1ccc(Br)cc1", "lt_gt_eq": ">", "selectivity ratio": 12}
{"structure_smiles_string": "CN(c1c(-c2ccc(F)cc2)nc2ncccn12)C1CCCCC1", "lt_gt_eq": ">", "selectivity ratio": 77}
{"structure_smiles_string": "CCCCOc1ccc(-c2nc3ncccn3c2NCc2ccc3ccccc3c2)cc1", "lt_gt_eq": "=", "selectivity ratio": 6}
{"structure_smiles_string": "CCCCOc1ccc(-c2nc3ncccn3c2NC2CCCCCC2)cc1", "lt_gt_eq": "=", "selectivity ratio": 59}

* * *

System: Influenza A virus
Experiment: Antiviral activity against group 2 influenza A H7N1 pseudotyped virus infected in A549 cells assessed as inhibition of viral entry incubated for 48 hrs by measuring luciferase activity by Neolite reporter gene assay
Format: functional, organism-based
Settings: H7N1, A549, 48 h

{"structure_smiles_string": "Cc1cc(C)n2c(NC3CCCCC3)c(-c3ccc(Br)cc3)nc2n1", "IC50 (µM)": 0.36}
{"structure_smiles_string": "CC(C)(C)CC(C)(C)Nc1nc2ncccn2c1-c1ccc(Br)cc1", "IC50 (µM)": 8.6}
{"structure_smiles_string": "Nc1c(-c2ccc(Br)cc2)nc2ncccn12", "IC50 (µM)": 100}

* * *

Here the recorded IC50 is given for each entry.
System: Influenza A virus
Assay: Antiviral activity against group 2 influenza A H7N1 pseudotyped virus infected in A549 cells assessed as inhibition of viral entry incubated for 48 hrs by measuring luciferase activity by Neolite reporter gene assay
Type: functional, organism-based
Details: H7N1, A549, 48 h

{"structure_smiles_string": "CCCCOc1ccc(-c2nc3ncccn3c2NC(C)C)cc1", "system": "Influenza A virus", "result_unit": "nM", "IC50": 2300}
{"structure_smiles_string": "CCOC(=O)CCCOc1ccc(-c2nc3ncccn3c2NC2CCCCC2)cc1", "system": "Influenza A virus", "result_unit": "nM", "IC50": 1800}
{"structure_smiles_string": "CCCCOc1ccc(-c2nc3ncccn3c2Nc2ccc(F)cc2)cc1", "system": "Influenza A virus", "result_unit": "nM", "IC50": 1500}
{"structure_smiles_string": "Cc1cc(Br)ccc1-c1nc2ncccn2c1Nc1ccccc1", "system": "Influenza A virus", "result_unit": "nM", "IC50": 2200}
{"structure_smiles_string": "CCCCOc1ccc(-c2nc3ncccn3c2NC2CCCCC2)cc1", "system": "Influenza A virus", "result_unit": "nM", "IC50": 670}
{"structure_smiles_string": "Brc1ccc(-c2nc3ncccn3c2NC2CCCCC2)cc1", "system": "Influenza A virus", "result_unit": "nM", "IC50": 200}
{"structure_smiles_string": "CCCCOc1ccc(-c2nc3ncccn3c2NCCC)cc1", "system": "Influenza A virus", "result_unit": "nM", "IC50": 22000}
{"structure_smiles_string": "Clc1ccc(-c2nc3ncccn3c2NC2CCCCC2)cc1", "system": "Influenza A virus", "result_unit": "nM", "IC50": 150}
{"structure_smiles_string": "COc1ccccc1-c1nc2ncccn2c1NC1CCCCC1", "system": "Influenza A virus", "result_unit": "nM", "IC50": 2300}
{"structure_smiles_string": "CCCCOc1ccc(-c2c(N)nc3ncccn23)cc1", "system": "Influenza A virus", "result_unit": "nM", "IC50": 58000}
